These measurements were taken from patent US9085557B2.

test system: M. tuberculosis H37Rv (ATCC 27294); test: MIC determination by broth dilution against M. tuberculosis H37Rv; type: cell-based, Mycobacterium tuberculosis; details: M. tuberculosis H37Rv, broth dilution, 3 weeks at 37° C., read visually (no turbidity)
quantity measured: MIC

>>> print(df.to_string())
                                    compound  measured_value
 0  CC1=C(OCCCCCCCCCCCCN2CCN(c3ccnc4cc(C(F)(F)F)ccc34)CC2)C(C)SC1=O (stereo not shown) [Compound 3f]       0.5 µg/mL
 1  CC1=C(OCCCCCCCCCN2CCN(c3ccnc4cc(C(F)(F)F)ccc34)CC2)C(C)SC1=O (stereo not shown) [Compound 3d]        16 µg/mL
 2  CC1=C(OCCCCCCCCCCN2CCN(c3ccnc4cc(C(F)(F)F)ccc34)CC2)C(C)SC1=O (stereo not shown) [Compound 3e]        16 µg/mL
 3  C=C/C(C)=C/[C@@]1(C)SC(=O)C(C)=C1O [Thiolactomycin, reference compound]        25 µg/mL
 4  CC1=C(OCCCCCCCCCCCCN2CCCN(c3ccnc4cc(C(F)(F)F)ccc34)CC2)C(C)SC1=O (stereo not shown) [Compound 5f]         8 µg/mL
 5  CC1=C(OCCCCCCCCN2CCN(c3ccnc4cc(C(F)(F)F)ccc34)CC2)C(C)SC1=O (stereo not shown) [Compound 3c]        16 µg/mL
 6  CC1=C(OCCCCCCCCCCN2CCCN(c3ccnc4cc(C(F)(F)F)ccc34)CC2)C(C)SC1=O (stereo not shown) [Compound 5e]         8 µg/mL
 7  CC1=C(OCCCCCN2CCN(c3ccnc4cc(C(F)(F)F)ccc34)CC2)C(C)SC1=O (stereo not shown) [Compound 3a]        16 µg/mL
 8  CC1=C(OCCCCCN2CCCN(c3ccnc4cc(C(F)(F)F)ccc34)CC2)C(C)SC1=O (stereo not shown) [Compound 5a]        16 µg/mL
 9  CC1=C(OCCCCCCCCCN2CCCN(c3ccnc4cc(C(F)(F)F)ccc34)CC2)C(C)SC1=O (stereo not shown) [Compound 5d]        16 µg/mL
10  CC1=C(OCCCCCCCCN2CCCN(c3ccnc4cc(C(F)(F)F)ccc34)CC2)C(C)SC1=O (stereo not shown) [Compound 5c]        16 µg/mL
11  CC1=C(OCCCCCCN2CCN(c3ccnc4cc(C(F)(F)F)ccc34)CC2)C(C)SC1=O (stereo not shown) [Compound 3b]        16 µg/mL
12  CC1=C(OCCCCCCN2CCCN(c3ccnc4cc(C(F)(F)F)ccc34)CC2)C(C)SC1=O (stereo not shown) [Compound 5b]        16 µg/mL
